// reported pEC50 for each item listed
- System: HCV replicon
- protocol-description: Replicon based assay of HCV replication inhibition (NPT ELISA)
- Assay type: cell-based, Hepatitis C virus
- study-conditions: Hepatitis C virus, Huh-7, 72 h, Table III; Huh-7 HCV replicon-containing cells, three days; read-out: Activity
pEC50: −log10 of the molar value.

Would you please look over these solved cases?
Query string: Sample CC(C)=CCC/C(C)=C/COc1ccc(Nc2nc(-c3cccnc3)cs2)cc1C(F)(F)F — what was its pEC50?
Result string: > 6.00

Query string: Field entry: CCCCCCCCOc1ccc(Nc2nc(Cc3ccc(Cl)cc3)cs2)cc1
Result string: < 5.00

Next:
Query string: Sample CCCCCCCCOc1ccc(Nc2nc(-c3ccsc3C#N)cs2)cc1C(F)(F)F — what was its pEC50?
Result string: > 6.00

Query string: Field entry: CCCCCCCCc1ccc(Nc2nc(-c3ccc(O)c(C(N)=O)c3)cs2)cc1
Result string: > 6.00

Query string: Field entry: CCCCCCC(C)Oc1ccc(Nc2nc(-c3ccc(N)nc3)cs2)cc1C(F)(F)F (stereo not shown)
Result string: > 6.00

Query string: Field entry: CCCCCCCCOc1ccc(Nc2nc(-c3ccc4[nH]c(=O)oc4c3)cs2)cc1C(F)(F)F
Result string: > 6.00

Query string: Field entry: CCCCCCCCOc1ccc(Nc2nc(-c3cncc(C(=O)O)c3)cs2)cc1
Result string: 5.00 to 6.00

Query string: Field entry: CCCCCCCCOc1ccc(Nc2nc(Cc3ccc(F)c(F)c3)cs2)cc1
Result string: < 5.00
